MEASURED TARGET: T1, orthogonal hCD122 receptor (hoRb), hCD122 with H133D and Y134F (human, UniProt P14784 27-550)
T1 sequence: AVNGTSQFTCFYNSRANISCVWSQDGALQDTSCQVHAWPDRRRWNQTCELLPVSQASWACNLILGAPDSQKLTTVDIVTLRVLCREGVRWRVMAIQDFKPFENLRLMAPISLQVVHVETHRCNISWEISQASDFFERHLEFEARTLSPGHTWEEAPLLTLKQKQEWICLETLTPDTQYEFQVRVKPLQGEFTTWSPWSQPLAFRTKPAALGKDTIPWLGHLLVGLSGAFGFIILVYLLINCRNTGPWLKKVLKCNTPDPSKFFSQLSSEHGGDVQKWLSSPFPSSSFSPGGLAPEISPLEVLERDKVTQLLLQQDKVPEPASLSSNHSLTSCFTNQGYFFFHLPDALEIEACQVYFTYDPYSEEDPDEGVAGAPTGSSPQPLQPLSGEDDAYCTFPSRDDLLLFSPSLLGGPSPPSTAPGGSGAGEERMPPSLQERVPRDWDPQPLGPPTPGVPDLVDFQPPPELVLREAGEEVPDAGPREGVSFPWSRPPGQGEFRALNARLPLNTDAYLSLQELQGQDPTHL
METHOD: cell-based or functional assay
Label 1 when NKL Ortho Proliferation Signal 1:2 is strictly below 30000; otherwise label -1.

BINDER	QUALITATIVE LABEL
SQVLNA (ligand) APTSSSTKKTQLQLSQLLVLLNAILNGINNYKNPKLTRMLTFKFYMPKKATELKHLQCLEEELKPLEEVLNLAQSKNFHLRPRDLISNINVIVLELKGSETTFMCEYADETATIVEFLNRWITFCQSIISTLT	-1
Δ88N, SQVLKA (ligand) APTSSSTKKTQLQLSQLLVLLKAILNGINNYKNPKLTRMLTFKFYMPKKATELKHLQCLEEELKPLEEVLNLAQSKNFHLRPRDLISINVIVLELKGSETTFMCEYADETATIVEFLNRWITFCQSIISTLT	1
SQVLTA (ligand) APTSSSTKKTQLQLSQLLVLLTAILNGINNYKNPKLTRMLTFKFYMPKKATELKHLQCLEEELKPLEEVLNLAQSKNFHLRPRDLISNINVIVLELKGSETTFMCEYADETATIVEFLNRWITFCQSIISTLT	1
Q126D, SQVLKA (ligand) APTSSSTKKTQLQLSQLLVLLKAILNGINNYKNPKLTRMLTFKFYMPKKATELKHLQCLEEELKPLEEVLNLAQSKNFHLRPRDLISNINVIVLELKGSETTFMCEYADETATIVEFLNRWITFCDSIISTLT	1
M39L, SQVLKA (ligand) APTSSSTKKTQLQLSQLLVLLKAILNGINNYKNPKLTRLLTFKFYMPKKATELKHLQCLEEELKPLEEVLNLAQSKNFHLRPRDLISNINVIVLELKGSETTFMCEYADETATIVEFLNRWITFCQSIISTLT	-1
L85V, SQVLKA (ligand) APTSSSTKKTQLQLSQLLVLLKAILNGINNYKNPKLTRMLTFKFYMPKKATELKHLQCLEEELKPLEEVLNLAQSKNFHLRPRDVISNINVIVLELKGSETTFMCEYADETATIVEFLNRWITFCQSIISTLT	-1
L18Q, SQVLKA (ligand) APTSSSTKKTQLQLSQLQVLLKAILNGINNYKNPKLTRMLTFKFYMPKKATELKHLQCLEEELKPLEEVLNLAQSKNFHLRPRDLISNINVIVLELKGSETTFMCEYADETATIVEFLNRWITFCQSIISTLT	-1
